These entries and their values trace back to the Immune Epitope Database (IEDB).

Target: HLA-A*69:01
Experiment: IEDB peptide-MHC binding, purified MHC/direct/fluorescence; filed as Kd, often an IC50 or EC50 that approximates it; bounds were set here for any values at or beyond the usual limits of such assays
Conditions: source organism: Mus musculus
readoutKind: pKd
Note on pKd: it is the negative log10 of concentration, concentration in mol/L.

# input Can you look up the measured pKd of FPEHIFPAL for me?
# output 5.63

---

Target: HLA-B*40:01
Test: IEDB peptide-MHC binding, purified MHC/direct/fluorescence; filed as Kd, often an IC50 or EC50 that approximates it; bounds were set here for any values at or beyond the usual limits of such assays
Details: source organism: Mus musculus
readoutKind: pKd
Lab note — pKd values are minus log10 of concentrations in M.

# input Using the record for FPEHIFPAL , report its pKd.
# output 6.56

---

Consider the following sequences and their measured pKd readings.
Target: HLA-A*02:06
Test: IEDB peptide-MHC binding, purified MHC/competitive/radioactivity; filed as Kd, often an IC50 or EC50 that approximates it; bounds were set here for any values at or beyond the usual limits of such assays
Conditions: source organism: Dengue virus 1 Brazil/97-11/1997
To interpret pKd, take it as minus log10 of a concentration measured in moles per litre.

sequenceInput	readoutKind	quantitativeResult
YVVIGLLFMI	pKd	6.85

# input Record MSIPATLFV : what is its pKd with HLA-A*02:06?
# output 7.92

---

Molecular target: HLA-B*39:01
Test: IEDB peptide-MHC binding, purified MHC/competitive/fluorescence; filed as Kd, often an IC50 or EC50 that approximates it; bounds were set here for any values at or beyond the usual limits of such assays
Conditions: source organism: Orthohantavirus negraense
readoutKind: Kd

# input Name the reported Kd value associated with the sequence NIYETEFFM
# output ≥ 20 µM

---

Kd reference
Target: HLA-A*31:01
Assay: IEDB peptide-MHC binding, purified MHC/direct/fluorescence; filed as Kd, often an IC50 or EC50 that approximates it; bounds were set here for any values at or beyond the usual limits of such assays
Details: source organism: Escherichia coli O157:H7

sequenceInput	Kd
GLKRGGVLL	≥ 20 µM

Now consider the entry below.
# input Recorded Kd for NLPSKPVWL , please?
# output ≥ 20 µM

---

Biological target: HLA-B*58:01
Test: IEDB peptide-MHC binding, purified MHC/competitive/radioactivity; filed as Kd, often an IC50 or EC50 that approximates it; bounds were set here for any values at or beyond the usual limits of such assays
Settings: source organism: Dengue virus 4 Philippines/H241/1956
readoutKind: pKd
Friendly reminder that pKd comes from taking -log10 of the concentration in mol/L.

# input Which pKd reading was recorded for the sequence GAVFQEEQGW ?
# output 7.73

---

Below: a set of entries, each annotated with reported Kd.
Target: HLA-B*44:02
Experiment: IEDB peptide-MHC binding, purified MHC/competitive/radioactivity; filed as Kd, often an IC50 or EC50 that approximates it; bounds were set here for any values at or beyond the usual limits of such assays
Settings: source organism: SARS coronavirus Tor2
Kindly answer with a numeric value in µM, unit omitted.

Below, each entry is followed by its recorded Kd result.
sequenceInput	targetUnderTest	quantitativeResult
WEILKFLIT	HLA-B*44:02	9.58
VENPDILRV	HLA-B*44:02	5.14
EELFYSYAT	HLA-B*44:02	0.278
VEFHLDGEVL	HLA-B*44:02	3.76

# input So what's the measured Kd for this one? TEFACVVAEA
# output 1.44

# input Input GETALALLLL
# output 1.34
